- Measured target: Tyk2 (Homo sapiens, UniProt P29597)
- Construct: purchased Invitrogen
- Sequence (P29597 whole entry): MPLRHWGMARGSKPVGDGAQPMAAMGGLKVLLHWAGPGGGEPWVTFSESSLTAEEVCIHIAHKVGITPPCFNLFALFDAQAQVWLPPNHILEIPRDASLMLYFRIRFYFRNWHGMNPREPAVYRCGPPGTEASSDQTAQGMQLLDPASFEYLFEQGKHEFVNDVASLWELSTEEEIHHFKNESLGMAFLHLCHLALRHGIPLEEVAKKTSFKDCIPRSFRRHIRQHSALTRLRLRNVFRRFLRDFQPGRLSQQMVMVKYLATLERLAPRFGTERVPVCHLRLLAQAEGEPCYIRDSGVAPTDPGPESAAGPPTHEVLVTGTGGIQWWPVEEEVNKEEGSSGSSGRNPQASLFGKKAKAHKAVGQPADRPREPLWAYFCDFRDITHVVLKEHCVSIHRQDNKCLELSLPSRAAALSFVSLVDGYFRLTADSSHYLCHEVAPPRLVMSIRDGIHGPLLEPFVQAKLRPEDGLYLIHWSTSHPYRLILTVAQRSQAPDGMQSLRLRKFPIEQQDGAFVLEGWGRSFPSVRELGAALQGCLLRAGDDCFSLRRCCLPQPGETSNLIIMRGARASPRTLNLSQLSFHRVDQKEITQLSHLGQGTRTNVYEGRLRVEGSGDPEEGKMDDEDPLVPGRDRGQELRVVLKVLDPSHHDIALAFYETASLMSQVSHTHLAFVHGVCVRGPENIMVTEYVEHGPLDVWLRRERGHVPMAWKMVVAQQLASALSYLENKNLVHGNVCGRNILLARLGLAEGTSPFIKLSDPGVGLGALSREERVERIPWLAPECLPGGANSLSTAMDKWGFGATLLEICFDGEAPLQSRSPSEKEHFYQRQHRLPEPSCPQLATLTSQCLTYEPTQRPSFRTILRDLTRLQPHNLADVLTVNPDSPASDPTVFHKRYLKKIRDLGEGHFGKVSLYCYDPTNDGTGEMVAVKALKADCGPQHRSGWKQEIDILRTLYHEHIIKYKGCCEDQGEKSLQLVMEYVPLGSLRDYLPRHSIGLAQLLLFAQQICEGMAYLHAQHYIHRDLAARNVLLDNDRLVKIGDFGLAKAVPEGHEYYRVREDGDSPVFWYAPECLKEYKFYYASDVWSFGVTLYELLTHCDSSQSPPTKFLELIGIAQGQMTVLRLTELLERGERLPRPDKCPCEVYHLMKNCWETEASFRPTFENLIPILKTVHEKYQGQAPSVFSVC
- Test details: Tyk2 enzyme inhibition test (LANCE method)
- Assay type: biochemical
- Particulars: test compound 1 μM; read-out: Inhibitory rate (%) Tyk2 1 μM
Recorded endpoint: inhibition at 1 µM (%)
Unit % implied. Number only.

Identify measured inhibition at 1 µM associated with "O=C(NCCO)c1ccc(-c2nn(-c3c(F)cccc3F)c3cc[nH]c(=O)c23)cc1"
99

Name the recorded inhibition at 1 µM of the item "CNC(=O)c1cc(-c2nn(-c3c(F)cccc3F)c3c(Br)c[nH]c(=O)c23)cs1" in your answer.
100

Quote inhibition at 1 µM reported for "O=C1COCCN1c1ccc(-c2nn(-c3c(F)cccc3F)c3cc[nH]c(=O)c23)cc1" please.
99

Annotate the compound "O=c1[nH]ccc2c1c(-c1ccc([N+](=O)[O-])cc1)nn2C1CCCC1" with its measured inhibition at 1 µM.
81

Identify the reported inhibition at 1 µM for the following entry. "O=c1[nH]ccc2c1c(-c1cn[nH]c1)nn2-c1c(F)cccc1F"
98

Tell me measured inhibition at 1 µM for "O=c1[nH]ccc2c1c(-c1cccc(C(F)(F)F)c1)nn2C1CCCC1" please.
46

Provide inhibition at 1 µM value for the following compound: "Cc1c[nH]c(=O)c2c(-c3csc(C(N)=O)c3)nn(C3CCCC3)c12"
96

Hello, please tell me recorded inhibition at 1 µM for this one: "CNC(=O)c1cc(-c2cn(C3CCCC3)c3c(C(=O)NC)c[nH]c(=O)c23)cs1"
51

Respond only with inhibition at 1 µM recorded for "NC(=O)c1cc(-c2nn(C3CCOCC3)c3cc[nH]c(=O)c23)cs1"
98

Give the value of inhibition at 1 µM reported for the following: "N#CCOc1ccc(-c2cn(C3CCCC3)c3c(C#N)c[nH]c(=O)c23)cc1"
97

Give reported inhibition at 1 µM value for "NC(=O)c1cc(-c2nn([C@H]3CC[C@@H](O)CC3)c3cc[nH]c(=O)c23)cs1"
99

Return the recorded inhibition at 1 µM value; entry: "Cn1cc(-c2nn(-c3c(F)cccc3F)c3cc[nH]c(=O)c23)ccc1=O"
91

Item "N#CCNC(=O)c1cc(-c2nn(-c3c(F)cccc3F)c3c(Cl)c[nH]c(=O)c23)cs1" : provide inhibition at 1 µM
100

Fill in inhibition at 1 µM for record "NS(=O)(=O)c1ccc(-n2nc(C3CCCC3)c3cc[nH]c(=O)c32)cc1"
84

Assign inhibition at 1 µM to the following record: "NS(=O)(=O)c1ccc(-c2cn([C@H]3CC[C@H](O)CC3)c3cc[nH]c(=O)c23)cc1"
90

Look up and state reported inhibition at 1 µM for "NC(=O)c1cc(-c2cn(C3CCCC3)c3cc[nH]c(=O)c23)cs1"
99

Let me know recorded inhibition at 1 µM for "CNC(=O)c1cc(-c2nn(-c3c(F)cccc3F)c3c(Cl)c[nH]c(=O)c23)cs1" , thanks.
99

State, in one line, measured inhibition at 1 µM of CCC(COC)n1cc(-c2ccc(C(N)=O)cc2)c2c(=O)[nH]ccc21 (stereo not drawn)
41

Give the reported inhibition at 1 µM for this compound. "O=C1CCCN1c1ccc(-c2nn(-c3c(F)cccc3F)c3cc[nH]c(=O)c23)cc1"
99

Give inhibition at 1 µM for "NS(=O)(=O)c1ccc(-c2nn(C3CCCC3)c3c(Br)c[nH]c(=O)c23)cc1"
91

// fetch inhibition at 1 µM given entry "NC(=O)c1cc(-c2nn([C@H]3CC[C@H](N)CC3)c3cc[nH]c(=O)c23)cs1"
99

Look up and state reported inhibition at 1 µM for NC(=O)c1cc(-c2nn(C3CCC(O)CC3)c3cc[nH]c(=O)c23)cs1 (stereo not drawn)
100

# return recorded inhibition at 1 µM for entry "CNC(=O)C1CCN(c2ccc(-c3nn(-c4c(F)cccc4F)c4cc[nH]c(=O)c34)cc2)CC1"
100

Report measured inhibition at 1 µM; entry is "NS(=O)(=O)c1ccc(-c2nn(C3CCCCC3)c3cc[nH]c(=O)c23)cc1"
99

Please report the measured inhibition at 1 µM for "NS(=O)(=O)c1ccc(-c2nn(-c3c(F)cccc3F)c3cc[nH]c(=O)c23)cc1"
97

Supply measured inhibition at 1 µM of "COC(=O)c1c[nH]c(=O)c2c(-c3ccc(C(N)=O)cc3)cn(C3CCCC3)c12" in your reply.
83

Specify measured inhibition at 1 µM for "O=c1[nH]ccc2c1c(-c1ccc(F)cc1)nn2C1CCCC1" .
91

Fill in reported inhibition at 1 µM for this entry: "NC(=O)c1cc(-c2nn([C@H]3CC[C@H](O)CC3)c3cc[nH]c(=O)c23)cs1"
100

Answer with reported inhibition at 1 µM of "COCC(=O)N1CCN(c2ccc(-c3nn(-c4c(F)cccc4F)c4cc[nH]c(=O)c34)cc2)CC1"
100

Using the record for "CN1CCN(c2ccc(-c3nn(-c4c(F)cccc4F)c4cc[nH]c(=O)c34)cc2)C1=O" , state its measured inhibition at 1 µM.
99

Complete the entry with inhibition at 1 µM for "NC(=O)c1cc(-c2nn(C3CCCC3)c3c(C4CC4)c[nH]c(=O)c23)cs1"
85

Return inhibition at 1 µM (reported value) for this compound: "NC(=O)Cc1cccc(-c2nn(-c3c(F)cccc3F)c3cc[nH]c(=O)c23)c1"
98

Tell me its inhibition at 1 µM given "N#CCc1ccc(-c2nn(C3CCCC3)c3cc[nH]c(=O)c23)cc1" as the entry.
97
